Measured pIC50, listed per entry for reference.
molecular target: Inosine-5'-monophosphate dehydrogenase (Cryptococcus neoformans var. neoformans serotype D (strain JEC21 /ATCC MYA-565) (Filobasidiella neoformans), UniProt Q5KP44); assay: Inhibition of recombinant Cryptococcus neoformans His-tagged IMPDH expressed in Escherichia coli BL21 (DE3) using IMP as substrate in presence of NAD
Sequence (Q5KP44 whole entry): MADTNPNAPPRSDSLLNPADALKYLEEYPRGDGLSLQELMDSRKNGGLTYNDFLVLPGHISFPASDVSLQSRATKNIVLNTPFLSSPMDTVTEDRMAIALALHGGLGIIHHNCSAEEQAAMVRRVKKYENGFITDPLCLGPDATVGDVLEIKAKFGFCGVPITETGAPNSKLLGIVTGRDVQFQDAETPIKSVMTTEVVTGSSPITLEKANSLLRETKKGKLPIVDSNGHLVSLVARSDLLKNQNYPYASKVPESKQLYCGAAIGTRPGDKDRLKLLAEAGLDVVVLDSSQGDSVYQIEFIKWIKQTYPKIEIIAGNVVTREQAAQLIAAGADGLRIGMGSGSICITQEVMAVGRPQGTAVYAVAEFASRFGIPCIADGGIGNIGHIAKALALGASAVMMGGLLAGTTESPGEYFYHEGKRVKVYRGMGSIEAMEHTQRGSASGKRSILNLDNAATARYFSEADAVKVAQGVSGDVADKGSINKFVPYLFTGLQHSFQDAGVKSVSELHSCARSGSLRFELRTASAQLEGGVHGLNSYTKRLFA
pIC50: −log10 of the molar value.
property_label: pIC50

> print(dat)
                      smiles.representation  property.label  result.number
1  Cc1ccc(-c2nnc(SC3=CS(=O)(=O)c4ccccc43)o2)cc1           pIC50           6.39
2  COC(=O)c1ccc(-c2nnc(SC3=CS(=O)(=O)c4ccccc43)o2)cc1           pIC50           6.47
3  O=S1(=O)C=C(Sc2nnc(-c3ccccc3)o2)c2ccccc21           pIC50           6.43
